Biological target: human plasma renin (Homo sapiens)
Sequence (P00797 67-406): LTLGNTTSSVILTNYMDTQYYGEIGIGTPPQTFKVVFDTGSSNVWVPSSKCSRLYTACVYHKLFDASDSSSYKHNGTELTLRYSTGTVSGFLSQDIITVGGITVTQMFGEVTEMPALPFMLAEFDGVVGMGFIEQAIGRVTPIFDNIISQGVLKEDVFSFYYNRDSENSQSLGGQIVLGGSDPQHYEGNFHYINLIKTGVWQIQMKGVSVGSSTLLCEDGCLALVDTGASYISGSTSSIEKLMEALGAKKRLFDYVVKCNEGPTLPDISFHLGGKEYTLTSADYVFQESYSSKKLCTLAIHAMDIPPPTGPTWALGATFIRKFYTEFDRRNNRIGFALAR
Assay: Inhibition of human plasma renin, in vitro method of Boger et al., J. Med. Chem. (1985) 28, 1779
Description: Inhibition of human plasma renin was assayed using the in vitro method described by Boger, et. al., J. Med. Chem. (1985) 28, 1779.
pIC50: −log10 of the molar value.
testReadout: pIC50

• CN1CCC[C@@H]([C@H](O)[C@H](CC2CCCCC2)NC(=O)[C@H](Cc2c[nH]cn2)NC(=O)[C@H](Cc2ccccc2)NC(=O)OC(C)(C)C)C1=O [Example 3A] = 7.33
• CN1CCCC[C@@H]([C@H](O)[C@H](CC2CCCCC2)NC(=O)[C@H](Cc2c[nH]cn2)NC(=O)[C@H](Cc2ccccc2)NC(=O)OC(C)(C)C)C1=O [Example 3C, Boc-Phe-His-(ACHP)-1-Methylcaprolactam] = 6.69

---

molecular target: human plasma renin (Homo sapiens); construct: from tissue; host or cells: human plasma; assay: Inhibition of human plasma renin, in vitro method of Boger et al., J. Med. Chem. (1985) 28, 1779; assay type: biochemical
testReadout: IC50 (nM)

* Boc-Phe-His-(ACHP)-4-Methyl-3-Morpholinone [Example 3B] | 31
